Quick list: Specificity α11bβ3 / αvβ3 per entry.
target: purified αllbβ3 receptor (Homo sapiens, UniProt P05106+P08514); assay: similar competitive binding assay with 125I-echistatin on αllbβ3 receptor, used for the specificity index; conditions: Table 13; specificity index IC50 αllbβ3/ IC50 αvβ3

Sample answers from the record:
{"COMPOUND": "CC(=O)N(Cc1ccc(C(=O)NC(CC(=O)O)c2ccccc2)cc1)Cc1nc2ccccc2[nH]1 (centres unmarked)", "QUANTITY NAME": "Specificity α11bβ3 / αvβ3", "EXPERIMENTAL VALUE": 0.4}
{"COMPOUND": "O=C(O)CC(NC(=O)c1ccc(CNCc2nc3ccccc3[nH]2)cc1)c1ccccc1 (centres unmarked)", "QUANTITY NAME": "Specificity α11bβ3 / αvβ3", "EXPERIMENTAL VALUE": 0.4}
{"COMPOUND": "COCC(=O)N(Cc1ccc(C(=O)NC(CC(=O)O)c2ccccc2)cc1)Cc1nc2ccccc2[nH]1 (centres unmarked)", "QUANTITY NAME": "Specificity α11bβ3 / αvβ3", "EXPERIMENTAL VALUE": 0.5}
{"COMPOUND": "O=C(O)CC(NC(=O)c1ccc(CN(Cc2nc3ccccc3[nH]2)C(=O)CCc2ccccc2)cc1)c1ccccc1 (centres unmarked)", "QUANTITY NAME": "Specificity α11bβ3 / αvβ3", "EXPERIMENTAL VALUE": 0.4}

Shift focus to the following entry.
Identify the measured Specificity α11bβ3 / αvβ3 of O=C(O)CC(NC(=O)c1ccc(CN(Cc2nc3ccccc3[nH]2)C(=O)CCC2CCCC2)cc1)c1ccccc1 (centres unmarked) for purified αllbβ3 receptor (Homo sapiens, UniProt P05106+P08514).
0.4

---

Molecular target: purified αllbβ3 receptor (Homo sapiens, UniProt P05106+P08514)
Test: similar competitive binding assay with 125I-echistatin on αllbβ3 receptor, used for the specificity index
Details: Table 15; specificity index IC50 αllbβ3/ IC50 αvβ3
Experimental: To measure the relative affinity of the test compounds for αvβ3 receptors versus affinity for αllbβ3 receptors, similar competitive assays were carried out using purified αllbβ3 receptor and ^125I-echistatin (iodinated using the lactoperoxidase method). The specificity index, which is a measure of the relative binding affinity for αvβ3, versus αllbβ3, may be determined by dividing the IC50 value for αllbβ3 by the IC50 value for αvβ3.
QUANTITY NAME: SPECIFICITY αIIbβ3 / αvβ3
Kindly provide the number alone.

Reported SPECIFICITY αIIbβ3 / αvβ3 for COCC(=O)N(Cc1ccc(C(=O)NC[C@H](NC(=O)OCc2ccccc2)C(=O)O)cc1)C(C)c1nc2ccccc2[nH]1 (some centres unmarked) [Example 5-77] : what is it?
12.4

Reported SPECIFICITY αIIbβ3 / αvβ3 for CC(c1nc2ccccc2[nH]1)N(Cc1ccc(C(=O)NC[C@H](NC(=O)OCc2ccccc2)C(=O)O)cc1)C(=O)CCC1CCCC1 (some centres unmarked) [Example 5-79] : what is it?
19.0

Reported SPECIFICITY αIIbβ3 / αvβ3 for CC(=O)N(Cc1ccc(C(=O)NC[C@H](NC(=O)OCc2ccccc2)C(=O)O)cc1)C(C)c1nc2ccccc2[nH]1 (some centres unmarked) [Example 5-76] : what is it?
6.7

Reported SPECIFICITY αIIbβ3 / αvβ3 for CC(NCc1ccc(C(=O)NC[C@H](NC(=O)OCc2ccccc2)C(=O)O)cc1)c1nc2ccccc2[nH]1 (some centres unmarked) [Example 5-75] : what is it?
10.2

Reported SPECIFICITY αIIbβ3 / αvβ3 for CC(c1nc2ccccc2[nH]1)N(Cc1ccc(C(=O)NC[C@H](NC(=O)OCc2ccccc2)C(=O)O)cc1)C(=O)CCc1ccccc1 (some centres unmarked) [Example 5-78] : what is it?
33.9

---

target: purified αllbβ3 receptor (Homo sapiens, UniProt P05106+P08514); assay: similar competitive binding assay with 125I-echistatin on αllbβ3 receptor, used for the specificity index; settings: Table 10; specificity index IC50 αllbβ3/ IC50 αvβ3
# if measured SPECIFICITY αIIbβ3 / αvβ3 < 500: satisfied  # else: not satisfied

Use the examples below as a reference point.
{"COMPOUND": "O=C(N[C@@H](CNC(=O)c1ccc(CN(Cc2nc3ccccc3[nH]2)C(=O)Nc2ccccc2)cc1)C(=O)O)OCc1ccccc1", "SYSTEM TESTED": "purified αllbβ3 receptor (Homo sapiens, UniProt P05106+P08514)", "GROUP": "satisfied"}
{"COMPOUND": "O=C(N[C@@H](CNC(=O)c1ccc(CN(Cc2nc3ccccc3[nH]2)C(=O)NC2CCCCC2)cc1)C(=O)O)OCc1ccccc1", "SYSTEM TESTED": "purified αllbβ3 receptor (Homo sapiens, UniProt P05106+P08514)", "GROUP": "not satisfied"}
{"COMPOUND": "CCOC(=O)c1ccc(NC(=O)N(Cc2ccc(C(=O)NC[C@H](NC(=O)OCc3ccccc3)C(=O)O)cc2)Cc2nc3ccccc3[nH]2)cc1", "SYSTEM TESTED": "purified αllbβ3 receptor (Homo sapiens, UniProt P05106+P08514)", "GROUP": "not satisfied"}
{"COMPOUND": "O=C(N[C@@H](CNC(=O)c1ccc(CN(Cc2nc3ccccc3[nH]2)C(=O)CCC2CCCC2)cc1)C(=O)O)OCc1ccccc1", "SYSTEM TESTED": "purified αllbβ3 receptor (Homo sapiens, UniProt P05106+P08514)", "GROUP": "satisfied"}

Does the reported SPECIFICITY αIIbβ3 / αvβ3 of O=C(N[C@@H](CNC(=O)c1ccc(CN(Cc2nc3ccccc3[nH]2)C(=O)N2CCOCC2)cc1)C(=O)O)OCc1ccccc1 stay below 500?
satisfied

Does the reported SPECIFICITY αIIbβ3 / αvβ3 of CC(NC(=O)N(Cc1ccc(C(=O)NC[C@H](NC(=O)OCc2ccccc2)C(=O)O)cc1)Cc1nc2ccccc2[nH]1)c1cccc2ccccc12 (stereo partly drawn) stay below 500?
satisfied

---

molecular target: αvβ3 receptor (purified from human placenta) (Homo sapiens, UniProt P05106+P06756); construct: αvβ3 receptor (purified from human placenta); from tissue; host or cells: human placenta; assay: competition radioligand binding assay, 125I-echistatin to αvβ3 receptor; settings: Table 14; αvβ3, inhibition of specific 125I-echistatin binding
Quick list: pIC50 per entry.
When answering, recall that pIC50 equals minus log10 of the concentration in mol/L, and write that number alone.

Sample answers from the record:
{"COMPOUND": "O=C(NC(CNC(=O)c1ccc(CN(CCc2nc3ccccc3[nH]2)C(=O)CCC2CCCC2)cc1)C(=O)O)OCc1ccccc1 (centres unmarked)", "pIC50": 6.62}
{"COMPOUND": "COCC(=O)N(CCc1nc2ccccc2[nH]1)Cc1ccc(C(=O)NCC(NC(=O)OCc2ccccc2)C(=O)O)cc1 (centres unmarked)", "pIC50": 6.25}
{"COMPOUND": "O=C(NC(CNC(=O)c1ccc(CNCCc2nc3ccccc3[nH]2)cc1)C(=O)O)OCc1ccccc1 (centres unmarked)", "pIC50": 6.38}
{"COMPOUND": "CC(=O)N(CCc1nc2ccccc2[nH]1)Cc1ccc(C(=O)NCC(NC(=O)OCc2ccccc2)C(=O)O)cc1 (centres unmarked)", "pIC50": 6.58}

Shift focus to the following entry.
Reported pIC50 for O=C(NC(CNC(=O)c1ccc(CN(CCc2nc3ccccc3[nH]2)C(=O)CCc2ccccc2)cc1)C(=O)O)OCc1ccccc1 (centres unmarked) : what is it?
6.77

---

Quick list: SPECIFICITY αIIbβ3 / αvβ3 per entry.
target: purified αllbβ3 receptor (Homo sapiens, UniProt P05106+P08514); assay: similar competitive binding assay with 125I-echistatin on αllbβ3 receptor, used for the specificity index; conditions: Table 10; specificity index IC50 αllbβ3/ IC50 αvβ3
Kindly provide the number alone.

Sample answers from the record:
{"COMPOUND": "CC(=O)OC(C(=O)N(Cc1ccc(C(=O)NC[C@H](NC(=O)OCc2ccccc2)C(=O)O)cc1)Cc1nc2ccccc2[nH]1)c1ccccc1 (stereo partly drawn) [Example 5-18]", "SPECIFICITY αIIbβ3 / αvβ3": 82}
{"COMPOUND": "O=C(N[C@@H](CNC(=O)c1ccc(CN(Cc2nc3ccccc3[nH]2)C(=S)NCCc2ccccc2)cc1)C(=O)O)OCc1ccccc1 [Example 5-31]", "SPECIFICITY αIIbβ3 / αvβ3": 80}
{"COMPOUND": "CC(C)C(=O)N(Cc1ccc(C(=O)NC[C@H](NC(=O)OCc2ccccc2)C(=O)O)cc1)Cc1nc2ccccc2[nH]1 [Example 5-13]", "SPECIFICITY αIIbβ3 / αvβ3": 38}
{"COMPOUND": "CCOC(=O)N(Cc1ccc(C(=O)NC[C@H](NC(=O)OCc2ccccc2)C(=O)O)cc1)Cc1nc2ccccc2[nH]1 [Example 5-20]", "SPECIFICITY αIIbβ3 / αvβ3": 15}
{"COMPOUND": "COc1ccc(OC(=O)N(Cc2ccc(C(=O)NC[C@H](NC(=O)OCc3ccccc3)C(=O)O)cc2)Cc2nc3ccccc3[nH]2)cc1 [Example 5-21]", "SPECIFICITY αIIbβ3 / αvβ3": 41}

Reported SPECIFICITY αIIbβ3 / αvβ3 for CCCNC(=O)N(Cc1ccc(C(=O)NC[C@H](NC(=O)OCc2ccccc2)C(=O)O)cc1)Cc1nc2ccccc2[nH]1 [Example 5-39] : what is it?
223

FYI, the data here is from patent EP1135374B9.
